ΔTm: recorded values
- Target or test system: UniProtKB P55201
- Sequence (whole entry): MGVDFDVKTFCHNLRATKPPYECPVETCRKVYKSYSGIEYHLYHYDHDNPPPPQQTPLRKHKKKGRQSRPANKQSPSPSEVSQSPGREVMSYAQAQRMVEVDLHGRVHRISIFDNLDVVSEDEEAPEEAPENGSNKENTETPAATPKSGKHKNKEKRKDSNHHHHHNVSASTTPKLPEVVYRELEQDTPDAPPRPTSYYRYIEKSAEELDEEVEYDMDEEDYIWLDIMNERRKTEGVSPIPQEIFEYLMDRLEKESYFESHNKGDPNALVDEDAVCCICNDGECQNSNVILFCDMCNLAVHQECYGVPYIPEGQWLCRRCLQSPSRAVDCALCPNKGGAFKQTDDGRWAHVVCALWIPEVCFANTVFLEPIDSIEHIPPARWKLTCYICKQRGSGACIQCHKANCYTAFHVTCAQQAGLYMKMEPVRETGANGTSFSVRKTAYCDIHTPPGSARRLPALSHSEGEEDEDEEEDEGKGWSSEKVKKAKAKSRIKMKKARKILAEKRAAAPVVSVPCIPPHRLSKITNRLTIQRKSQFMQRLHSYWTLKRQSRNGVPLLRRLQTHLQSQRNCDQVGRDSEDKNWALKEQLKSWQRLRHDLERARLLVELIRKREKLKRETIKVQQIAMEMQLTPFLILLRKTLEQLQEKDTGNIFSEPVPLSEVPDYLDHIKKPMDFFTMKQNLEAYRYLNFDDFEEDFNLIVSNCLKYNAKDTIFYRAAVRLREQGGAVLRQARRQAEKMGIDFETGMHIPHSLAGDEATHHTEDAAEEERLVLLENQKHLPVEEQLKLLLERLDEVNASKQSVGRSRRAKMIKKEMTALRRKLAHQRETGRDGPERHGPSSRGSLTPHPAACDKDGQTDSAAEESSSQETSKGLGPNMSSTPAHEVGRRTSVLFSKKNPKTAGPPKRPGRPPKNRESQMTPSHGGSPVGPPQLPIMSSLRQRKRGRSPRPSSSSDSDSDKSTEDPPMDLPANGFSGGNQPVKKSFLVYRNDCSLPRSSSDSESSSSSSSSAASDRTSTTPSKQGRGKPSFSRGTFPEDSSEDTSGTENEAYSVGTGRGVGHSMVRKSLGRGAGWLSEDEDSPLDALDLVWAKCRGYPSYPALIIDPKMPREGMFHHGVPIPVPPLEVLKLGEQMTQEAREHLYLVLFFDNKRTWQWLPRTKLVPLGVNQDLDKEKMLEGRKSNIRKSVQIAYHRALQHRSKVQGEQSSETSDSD
- Measurement setup: Compound concentration 20.0 uM
Response body: numeric value in °C, unit text excluded.

CSc1cccc(Nc2ncc3cc(-c4c(Cl)cccc4Cl)c(=O)n(C)c3n2)c1
-0.8
O=C1COc2c(cccc2[C@@H](O)CNCCN(C(=O)CCNCCc2ccc(Cl)c(Cl)c2)C2CCCCC2)N1
-1.84

Prompt: Please report the measured ΔTm for O=C(NC[C@H](O)CN1CCc2ccccc2C1)c1cc(NC2COC2)ncn1
Response: -1.25

Prompt: Please report the measured ΔTm for Cc1ncc(Cl)cc1NCc1ccc(C(=O)N[C@@H](CC2CCCC2)C(=O)NC2CC2)s1
Response: -0.65

Prompt: Please report the measured ΔTm for CC(C)N(C[C@H]1O[C@@H](n2cnc3c(N)ncnc32)[C@H](O)[C@@H]1O)[C@H]1C[C@@H](CCc2nc3cc(C(C)(C)C)ccc3[nH]2)C1
Response: -1.35

Source of measurements: ChEMBL document CHEMBL5724796
